# subject of test: furin, P09958
# Sequence (P09958 whole entry): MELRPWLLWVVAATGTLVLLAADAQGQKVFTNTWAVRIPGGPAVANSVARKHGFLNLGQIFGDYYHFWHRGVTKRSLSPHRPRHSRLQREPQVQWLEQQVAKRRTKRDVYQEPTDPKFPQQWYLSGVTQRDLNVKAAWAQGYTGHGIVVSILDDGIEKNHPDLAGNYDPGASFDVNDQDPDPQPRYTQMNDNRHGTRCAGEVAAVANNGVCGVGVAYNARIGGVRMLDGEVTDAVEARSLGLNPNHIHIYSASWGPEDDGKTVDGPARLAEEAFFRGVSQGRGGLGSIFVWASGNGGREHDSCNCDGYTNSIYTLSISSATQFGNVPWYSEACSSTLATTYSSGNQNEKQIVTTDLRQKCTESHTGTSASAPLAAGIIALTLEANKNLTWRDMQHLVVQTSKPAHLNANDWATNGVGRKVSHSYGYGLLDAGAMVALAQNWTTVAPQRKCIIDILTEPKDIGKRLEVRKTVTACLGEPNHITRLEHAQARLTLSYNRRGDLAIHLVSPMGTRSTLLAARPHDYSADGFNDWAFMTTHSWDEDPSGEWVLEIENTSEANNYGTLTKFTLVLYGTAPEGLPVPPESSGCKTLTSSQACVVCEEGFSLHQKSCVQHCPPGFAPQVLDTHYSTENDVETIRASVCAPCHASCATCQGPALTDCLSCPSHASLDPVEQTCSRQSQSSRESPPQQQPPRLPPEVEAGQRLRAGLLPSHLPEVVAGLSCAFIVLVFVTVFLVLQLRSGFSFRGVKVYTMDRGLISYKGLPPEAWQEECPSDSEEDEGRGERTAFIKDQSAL
# protocol text: furin cleavage Z-score vs untreated control; higher = more cleavage, active = 3.5 or more, inactive = 1 or less, 8 variable residues between constant flanks;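 note: purified furin at 1:10 enzyme:substrate in 50 mM HEPES pH 7.5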
# experimental conditions: 15 min
The other results are listed elsewhere or left out. The hit rate among all sequences tested is not known here.
furin cleavage Z-score vs 0.4: at or above is Condition met, below is Condition not met.

>>> print(df.to_string())
                          chain              group
0  CARRRRDLGSAGNASASA [FS-2517]      Condition met
1   CAHELRHRRHAGNASASA [FS-170]      Condition met
2   CASVWKDLLEAGNASASA [HC1431]  Condition not met

Exam item: Is it the case that CARPLRDAGGAGNASASA [FS-2357] has furin cleavage Z-score reaching or exceeding 0.4?
Marked response: Condition not met

Exam item: Ok, now CANLEVVTSTAGNASASA [HC2281]
Marked response: Condition not met

Exam item: Ok, now CAAEARKNRPAGNASASA [FS-1508]
Marked response: Condition met

Exam item: Ok, now CARHRRAAGGAGNASASA [FS-2144]
Marked response: Condition met

Exam item: Ok, now CARLRRFQKGAGNASASA [FS-2714]
Marked response: Condition not met

Exam item: Ok, now CADLYLVTRHAGNASASA [HC725]
Marked response: Condition not met

Exam item: Ok, now CARQRRPHGGAGNASASA [FS-2765]
Marked response: Condition not met
